# Experiment summary: Inhibition of human dUTPase-mediated cell proliferation in HeLa S3 cells after 72 hrs by crystal violet staining
Measured attribute: pIC50
pIC50 here: minus log base 10 of the concentration, concentration in moles per litre.

pIC50 reported for this compound C[C@@H](NS(=O)(=O)CC/C=C/Cn1ccc(=O)[nH]c1=O)c1cccc(OCC2CC2)c1 : 4.42

---

# Experiment summary: Inhibition of human dUTPase-mediated cell proliferation in HeLa S3 cells assessed as compound concentration required to reduce 50% of 1 uM of FdUrd T/C after 24 hrs by crystal violet staining
Form field: EC50 (one value per entry).
Return type: number; implicit unit nM.

# example entries with known answers
{"columns": ["Compound smiles", "Numeric result"],
 "data": [
  ["C[C@@H](NS(=O)(=O)CC/C=C/Cn1ccc(=O)[nH]c1=O)c1cccc(OCC2CC2)c1", 66],
  ["CC(C)(CC/C=C/Cn1ccc(=O)[nH]c1=O)NS(=O)(=O)c1ccccc1", 2600],
  ["C[C@@H](NS(=O)(=O)c1ccc(Cn2ccc(=O)[nH]c2=O)cc1)c1cccc(OCC2CC2)c1", 930],
  ["CC(C)(NS(=O)(=O)c1ccccc1)c1ccc(Cn2ccc(=O)[nH]c2=O)cc1", 2600],
  ["CC(C)(CC/C=C/Cn1ccc(=O)[nH]c1=O)NS(=O)(=O)c1cccc(OCC(F)F)c1", 49]
]}

EC50 reported for this molecule C[C@@H](NS(=O)(=O)c1ccc(Cn2ccc(=O)[nH]c2=O)cc1)c1cccc(OCC(F)F)c1 : 610

EC50 reported for this molecule CC(C)(NS(=O)(=O)c1cccc(OCC2CC2)c1)c1ccc(Cn2ccc(=O)[nH]c2=O)cc1 : 140

---

# Experiment summary: Inhibition of human dUTPase-mediated cell proliferation in HeLa S3 cells assessed as compound concentration required to reduce 50% of 1 uM of FdUrd T/C after 24 hrs by crystal violet staining
Measured attribute: pEC50
pEC50 here: minus log base 10 of the concentration, concentration in moles per litre.

# example entries with known answers
{"columns": ["Compound smiles", "pEC50"],
 "data": [
  ["CC(C)(CC/C=C/Cn1ccc(=O)[nH]c1=O)NS(=O)(=O)c1cccc(OC2CCCC2)c1", 6.70],
  ["COc1cccc(S(=O)(=O)NC(C)(C)c2ccc(Cn3ccc(=O)[nH]c3=O)cc2)c1", 5.50],
  ["C[C@@H](NS(=O)(=O)CC/C=C/Cn1ccc(=O)[nH]c1=O)c1cccc(OCC(F)F)c1", 7.02],
  ["C[C@@H](NS(=O)(=O)CC/C=C/Cn1ccc(=O)[nH]c1=O)c1cccc(OC2CCCC2)c1", 6.82],
  ["COc1cccc(S(=O)(=O)NC(C)(C)CC/C=C/Cn2ccc(=O)[nH]c2=O)c1", 6.35]
]}

pEC50 reported for this compound CC(C)(NS(=O)(=O)c1cccc(OCC(F)F)c1)c1ccc(Cn2ccc(=O)[nH]c2=O)cc1 : 7.00

pEC50 reported for this compound CC(C)(CCCOCn1ccc(=O)[nH]c1=O)NS(=O)(=O)c1ccccc1 : 5.29

pEC50 reported for this compound C[C@@H](NS(=O)(=O)c1ccc(Cn2ccc(=O)[nH]c2=O)cc1)c1cccc(OC2CCCC2)c1 : 6.21

pEC50 reported for this compound CC(C)(NS(=O)(=O)c1cccc(OC2CCCC2)c1)c1ccc(Cn2ccc(=O)[nH]c2=O)cc1 : 6.92

# credit: BindingDB's records for doi:10.1021/jm300416h
